Tested on: MOLT-4
method: NCI tumour cell line growth inhibition, 48 h
Active and inactive are the calls of the source. Cut-off read from the data, not from the text of the source: active = GI50 up to about 1.1 µM and inactive = higher.
One label from this list, please: active, inactive

COc1cc(C(C)c2cc3c(cc2OCCO)OCO3)cc(OC)c1OC (stereo not given) | active

In the following, a different molecule is considered.
Hi, sorry to bother you, what did the test record for CCCCC(C(=O)CCC(=O)Nc1ccc(Cl)cc1)C(=O)C(C)C (stereo not given) ?
inactive

---

Below, each entry is listed with its recorded GI50.
System: UACC-62
method: NCI tumour cell line growth inhibition, 48 h
The source made the active and inactive calls. Rule as the data show it: active = GI50 up to about 1.1 µM and inactive = higher. Residues, ends and D or L forms follow the SMILES beside them. *: point of attachment. Cbz = O=C(OCc1ccccc1)*; Boc = CC(C)(C)OC(=O)*; OSu = O=C1CCC(=O)N1O*; Bn = c1ccc(C*)cc1

c1ccc(CCCN2C3CCC2CN(CCOC(c2ccccc2)c2ccccc2)C3)cc1 | 12.9 µM (inactive)

GET /values?readout=GI50&item= CCCNCc1nc2ccc(Br)cc2c(=O)n1CCC
6.93 µM (inactive)

Given the entry Cc1cccc(/C(Br)=C2/OC(=O)c3ccccc32)c1 , report its measured GI50.
> 100 µM (inactive)

Requested read-out: GI50. Entry: CC(C)(C)OC(=O)NC(Cc1ccc(OCc2ccccc2)cc1)C(=O)NC(CCCCNC(=O)OCc1ccccc1)C(=O)NC(CCCCNC(=O)OCc1ccccc1)C(=O)ON1C(=O)CCC1=O (stereo not drawn) (Boc-Tyr(Bn)-Lys(Cbz)-Lys(Cbz)-OSu; configuration not given here)
15.7 µM (inactive)

// returns reported GI50 for input C(=C\c1cccc(/C=C/c2ccccn2)n1)/c1ccccn1
27.1 µM (inactive)

Sample CC(=O)OC(=O)O/C=C\CCl — what was its GI50?
> 100 µM (inactive)

What does the record list as GI50 for C/C(=C\c1ccc(Cl)cc1)C(C)(C)C(=O)O ?
> 100 µM (inactive)

I am curious: what GI50 value has been reported for CC(C)OC(=O)c1ccc(CCC2=CC(=O)C=CC2=O)cc1 ?
14.9 µM (inactive)
